B1: TPR t1 (parent)
chain: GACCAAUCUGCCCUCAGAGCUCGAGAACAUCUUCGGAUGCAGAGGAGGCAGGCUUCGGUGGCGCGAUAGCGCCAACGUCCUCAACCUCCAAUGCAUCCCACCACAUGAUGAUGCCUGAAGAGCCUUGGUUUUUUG

variants of: B1; assay: polymerase ribozyme fitness, log enrichment relative to wild type (log ratio); higher = more active; in vitro selection for triplet polymerase activity
Observed property: polymerase ribozyme fitness (log ratio)

Q: Fill in the blank: the reported polymerase ribozyme fitness (log ratio) of A18U G45U G63U G71C G110C C114G C124U is ____.
Result: -7.92

Q: Fill in the blank: the reported polymerase ribozyme fitness (log ratio) of A43U U96C C101A G122A G127A is ____.
Result: -5.79

Q: Fill in the blank: the reported polymerase ribozyme fitness (log ratio) of G60U G135U is ____.
Result: -0.871

Q: Fill in the blank: the reported polymerase ribozyme fitness (log ratio) of A2U C12G is ____.
Result: -1.36

Q: Fill in the blank: the reported polymerase ribozyme fitness (log ratio) of G60A C73A is ____.
Result: -0.416

Q: Fill in the blank: the reported polymerase ribozyme fitness (log ratio) of C34A A50U C53U A121C is ____.
Result: -4.91

Q: Fill in the blank: the reported polymerase ribozyme fitness (log ratio) of C34A G77U C98A is ____.
Result: -2.63

Q: Fill in the blank: the reported polymerase ribozyme fitness (log ratio) of C3U C13U C85U U87A A95C is ____.
Result: -2.29

Q: Fill in the blank: the reported polymerase ribozyme fitness (log ratio) of A27C A43C C114U is ____.
Result: -4.33

Q: Fill in the blank: the reported polymerase ribozyme fitness (log ratio) of U7C C11G A16G G52U U59G C72U is ____.
Result: -0.58

Q: Fill in the blank: the reported polymerase ribozyme fitness (log ratio) of G44A C56U is ____.
Result: -0.878

Q: Fill in the blank: the reported polymerase ribozyme fitness (log ratio) of C49A C53A C79A C85U A111C is ____.
Result: -2.83

Q: Fill in the blank: the reported polymerase ribozyme fitness (log ratio) of U7C C12A C13A G17A A27C C115U is ____.
Result: -5.21

Q: Fill in the blank: the reported polymerase ribozyme fitness (log ratio) of C8U U92A G93A is ____.
Result: -4.46

Q: Fill in the blank: the reported polymerase ribozyme fitness (log ratio) of C4G G39A C40U G93A C102A is ____.
Result: -3.57

Q: Fill in the blank: the reported polymerase ribozyme fitness (log ratio) of G52U C72U U78C A121C is ____.
Result: 1.26

Q: Fill in the blank: the reported polymerase ribozyme fitness (log ratio) of A16U G48C G120A is ____.
Result: -1.64

Q: Fill in the blank: the reported polymerase ribozyme fitness (log ratio) of C62G C79U U81A C85A is ____.
Result: -6.14

Q: Fill in the blank: the reported polymerase ribozyme fitness (log ratio) of C85U U116A C123U U129A is ____.
Result: -5.12

Q: Fill in the blank: the reported polymerase ribozyme fitness (log ratio) of G36A U59C U126G is ____.
Result: -2.55

Q: Fill in the blank: the reported polymerase ribozyme fitness (log ratio) of C72G C102U is ____.
Result: -1.53

Q: Fill in the blank: the reported polymerase ribozyme fitness (log ratio) of C34U C88U is ____.
Result: -4.26

Q: Fill in the blank: the reported polymerase ribozyme fitness (log ratio) of C34A C49G C76G U96A C124U U131G U134C is ____.
Result: -2.1
